All values here come from PubChem BioAssay (NCATS).

Tested on: ATS95
measurement protocol: qHTS profiling for inhibitors of Plasmodium falciparum proliferation (AID 504749); note: nearly all actives have a fitted effect of over 60% in size
protocol conditions: P. falciparum in erythrocytes, SYBR Green DNA, 72 h; series mostly up to 28.7 µM
Records with an inconclusive call do not appear. Activity calls are given as the source filed them. Calls come from the whole dose curve; as a rule, active = well fitted inhibition curve with a large enough effect; inconclusive = small, poorly fitted or top-dose-only effect; inactive = flat fitted curve, though single readings scatter.
Outcome (select one): 1 for active, -1 for inactive

Answered cases to consult:
1. CC(=O)C1(O)Cc2c(O)c3c(c(O)c2C(OC2CC(N)C(O)C(C)O2)C1)C(=O)c1c(O)cccc1C3=O (stereo not given): 1
2. CCCCCOC(=O)Nc1nc(=O)n(C2O[C@H](C)[C@@H](O)[C@@H]2O)cc1F (stereo not given in full): -1
3. CO[C@H]1C[C@@H]2CC[C@@H](C)[C@@](O)(O2)C(=O)C(=O)N2CCCC[C@H]2C(=O)O[C@H]([C@H](C)C[C@@H]2CC[C@@H](O)[C@H](OC)C2)CC(=O)[C@H](C)/C=C(\C)[C@@H](O)[C@@H](OC)C(=O)[C@H](C)C[C@H](C)/C=C/C=C/C=C/1C: 1

stdin: For CCCCCCCCCCCC(=O)OCC(O)C1OCC(O)C1O (stereo not given) , which call appears in the assay record?
stdout: -1

stdin: For C[C@]12CC[C@@H]3c4ccc(O)cc4C[C@@H](CCCCCCCCCS(=O)CCCC(F)(F)C(F)(F)F)C3[C@@H]1CC[C@@H]2O (stereo not given in full) , which call appears in the assay record?
stdout: 1

----------
Test system: DFO2036
measurement protocol: qHTS profiling for inhibitors of Plasmodium falciparum proliferation (AID 504749); note: nearly all actives have a fitted effect of over 60% in size
protocol conditions: P. falciparum in erythrocytes, SYBR Green DNA, 72 h; series mostly up to 28.7 µM
Records with an inconclusive call do not appear. The source made the active and inactive calls. Calls follow the shape of the dose curve; as a rule, active = well fitted inhibition curve with a large enough effect; inconclusive = small, poorly fitted or top-dose-only effect; inactive = flat fitted curve, though single readings scatter.
Outcome (select one): 1 for active, -1 for inactive

Answered cases to consult:
1. CC(=O)CC(c1ccccc1)C1C(=O)Oc2ccccc2C1=O (centres undefined): -1
2. OCCN1CC(O)C(O)C(O)C1CO (centres undefined): -1
3. CCCCCOC(=O)Nc1nc(=O)n(C2O[C@H](C)[C@@H](O)[C@@H]2O)cc1F (some centres undefined): -1
4. O=C1CC[C@H](C(=O)N[C@@H]2C[C@H]2c2ccccc2)N1: -1
5. Nc1nc(F)nc2c1ncn2[C@@H]1O[C@H](CO)[C@@H](O)[C@H]1O: -1
6. CC(=O)O[C@]1(C(C)=O)CCC2C3CCC4=CC(=O)CCC4(C)C3(F)C(O)CC21C (some centres undefined): -1
7. OCC1O[C@@H](O[C@@H]2C(CO)OC(O)C(O)C2O)C(O)C(O)C1O (some centres undefined): -1
8. Nc1nc(/C(=C/CC(=O)O)C(=O)NC2C(=O)N3C(C(=O)O)=CCSC23)cs1 (centres undefined): -1
9. CN1[C@H]2CC(OC(=O)[C@H](CO)c3ccccc3)C[C@H]1[C@H]1O[C@H]12 (some centres undefined): -1
10. CC1(C)O[C@@H]2C[C@H]3[C@@H]4CCC5=CC(=O)C=C[C@]5(C)[C@H]4C(O)C[C@]3(C)[C@]2(C(=O)CO)O1 (some centres undefined): -1

stdin: For "CCCC[C@H]1C(=O)N(c2ccccc2)N(c2ccc(O)cc2)C1=O" , which call appears in the assay record?
stdout: -1

stdin: For C=C1C(n2cnc3c(=O)[nH]c(N)nc32)C[C@H](O)[C@H]1CO (some centres undefined) , which call appears in the assay record?
stdout: -1

stdin: For CNC(=O)C(N)CSC(C)C1=C(C)c2cc3[n-]c(cc4nc(cc5[n-]c(cc1n2)c(C)c5CCC(=O)O)C(CCC(=O)O)=C4C)c(C)c3C(C)SCC(N)C(=O)NC.[Fe+2] (centres undefined) , which call appears in the assay record?
stdout: -1

stdin: For "CC[C@H](C)[C@H]1O[C@]2(CC[C@@H]1C)C[C@@H]1C[C@@H](C/C=C(\C)[C@H](O[C@@H]3C[C@H](OC)[C@H](O[C@@H]4C[C@H](OC)[C@@H](O)[C@H](C)O4)[C@H](C)O3)[C@@H](C)/C=C/C=C3\CO[C@@H]4[C@H](O)C(C)=C[C@@H](C(=O)O1)[C@]34O)O2" , which call appears in the assay record?
stdout: 1

stdin: For OCC1O[C@H](Oc2ccc(O)cc2)C(O)C(O)C1O (some centres undefined) , which call appears in the assay record?
stdout: -1

stdin: For "CC[C@@]1(O)C[C@H](O[C@H]2C[C@@H](N(C)C)[C@@H](O[C@H]3C[C@@H](O)[C@@H](O[C@H]4CCC(=O)[C@@H](C)O4)[C@@H](C)O3)[C@@H](C)O2)c2c(cc3c(c2O)C(=O)c2c(O)cccc2C3=O)[C@H]1C(=O)OC" , which call appears in the assay record?
stdout: 1

stdin: For C=C1CC2C3C=C(C)C4=CC(=O)CCC4(C)C3CCC2(C)[C@@]1(OC(C)=O)C(C)=O (some centres undefined) , which call appears in the assay record?
stdout: -1

stdin: For "CCCC[C@H](O)c1ccccc1" , which call appears in the assay record?
stdout: -1

stdin: For "O=C(O)c1ccc(N[C@@H]2OC[C@@H](O)[C@@H](O)[C@@H]2O)cc1" , which call appears in the assay record?
stdout: -1

stdin: For CC(O)C(N)C(=O)O (centres undefined) , which call appears in the assay record?
stdout: -1

stdin: For CC1OC(OC2CCC3(C)C(CCC4C3CC(O)C3(C)C(C5=CC(=O)OC5)CCC43O)C2)CC(O)C1OC1CC(O)C(OC2CC(O)C(OC3OC(CO)C(O)C(O)C3O)C(C)O2)C(C)O1 (centres undefined) , which call appears in the assay record?
stdout: -1

----------
Could you please report measured Potency for the items listed next?
measured on: Glucocorticoid receptor (Homo sapiens)
measurement protocol: GR-GFP Redistribution (AID 450); note: potency is the fitted concentration of half-maximal effect
protocol conditions: U2OS GR-GFP nuclear translocation, laser cytometry, 2 h; series mostly up to 20.6 µM
Activity calls are given as the source filed them.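 The calls were made as follows: active = compounds whose dose series gives a full or clear partial fitted curve of increased nuclear translocation; inconclusive = weak partial curve or effect only at the top dose; inactive = no dose-dependent translocation response.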

1. CC(=O)c1c(OCC(=O)O)ccc2c(C)cc(=O)oc12: > 20.6 µM (inactive)

Parameter requested: Potency. Apply to each item below.
1. CCOC(=O)/C(C#N)=C1/SC(CCO)C(=O)N1c1ccccc1 (stereo not given)
2. COC(=O)c1ccc(C2/C(=C(\O)c3cccc(OC)c3)C(=O)C(=O)N2CCCN2CCOCC2)cc1 (stereo not given)

stdout:
1: > 20.6 µM (inactive); 2: > 20.6 µM (inactive)

Parameter requested: Potency. Apply to each item below.
1. CN1C(=O)CC(N2CCN(c3ccc(Cl)c(Cl)c3)CC2)C1=O (stereo not given)
2. Cc1ccc(C(=O)CSC2=C(C#N)C(c3ccco3)C3=C(CCCC3=O)N2)cc1 (stereo not given)
3. OCCN=C(c1ccccc1)C12CN3CN(CN(C3)C1)C2
4. Cc1ccc(C(=O)[C@@H]2[C@@H]3[C@@H](C(=O)[C@@H]4OC[C@H]3O4)[C@@H]3C=Cc4ccccc4N23)cc1

stdout:
["> 20.6 µM (inactive)", "> 20.6 µM (inactive)", "> 20.6 µM (inactive)", "> 46 µM (inactive)"]

Parameter requested: Potency. Apply to each item below.
1. CCCOc1cccc(-c2nnc(N)s2)c1
2. COc1ccc2c(c1OC)C(=O)N1c3ccccc3C(=O)N(c3ccccc3)C21 (stereo not given)
3. CCOC(=O)CSc1nc(-c2ccncc2)ccc1C#N

stdout:
["> 20.6 µM (inactive)", "> 20.6 µM (inactive)", "> 20.6 µM (inactive)"]

----------
measurement protocol: qHTS Assay for Identification of Small Molecule Antagonists for Thrombopoietin (TPO) Signaling Pathway (AID 918); note: potency is the fitted concentration of half-maximal effect; nearly all actives have a fitted effect of over 60% in size
protocol conditions: TPO-dependent cell signaling reporter, antagonist mode
Inconclusive results are not listed. Activity calls are given as the source filed them. Calls come from the whole dose curve; as a rule, active = well fitted inhibition curve with a large enough effect; inconclusive = small, poorly fitted or top-dose-only effect, or effect the other way, or another doubt; inactive = flat fitted curve, though single readings scatter.
measurement label: Potency

Worked examples follow.
1) C=C1C(=O)O[C@@H]2[C@@H]1CC/C(C)=C\CC[C@@]1(C)O[C@H]21: 10 µM (active)
2) CSc1ccc2c(c1)N(CC[C@H]1CCCCN1C)c1ccccc1S2: 12.6 µM (active)
3) FC(F)(F)c1cc(CO[C@@H]2CCCN[C@H]2c2ccccc2)cc(C(F)(F)F)c1: 10 µM (active)
4) Cc1c(C)c2c(c(C)c1O)CC[C@@](C)(CN1CCN(c3cc(N4CCCC4)nc(N4CCCC4)n3)CC1)O2: 10 µM (active)

Here is another molecule to look at.
stdin: Fill in the blank: the reported Potency of "CN1CCc2cc(O)c(O)cc2[C@H](c2ccccc2)C1" is ____.
stdout: 10 µM (active)

----------
System: CP185
measurement protocol: qHTS profiling for inhibitors of Plasmodium falciparum proliferation (AID 504749); note: nearly all actives have a fitted effect of over 60% in size
protocol conditions: P. falciparum in erythrocytes, SYBR Green DNA, 72 h; series mostly up to 28.7 µM
Description: NIH National Institute of Allergy and Infectious Diseases [NIAID] NIH Chemical Genomics Center [NCGC] […] Because mature erythrocytes lack DNA, only Plasmodium-derived DNA is detected. NCGC Assay Protocol Summary: The SYBR Green viability assay was adapted from a method described previously (Plouffe et al., 2008). […] The following morning, fluorescence intensity at 485(14) nm excitation and 535(25) nm emission wavelengths was measured on an EnVision (Perkin Elmer) plate reader. […]
Results filed as inconclusive are left out. The source made the active and inactive calls. Calls follow the shape of the dose curve; as a rule, active = well fitted inhibition curve with a large enough effect; inconclusive = small, poorly fitted or top-dose-only effect; inactive = flat fitted curve, though single readings scatter.
Outcome (select one): Y (active), N (inactive)

1. CO/N=C(/C(=O)N[C@@H]1C(=O)N2C(C(=O)O)=C(CSc3nc(C)c(CC(=O)O)s3)CS[C@H]12)c1csc(N)n1: N

stdin: For CC(=O)N1CC(O)CC1C(=O)O (centres undefined) , which call appears in the assay record?
stdout: N

stdin: For CCCCC(=O)OC1CCC2C3CCc4cc(O)ccc4C3CC[C@]12C (some centres undefined) , which call appears in the assay record?
stdout: N

stdin: For "CCN(CC)CC(=O)Nc1c(C)cc(C)cc1C" , which call appears in the assay record?
stdout: N

stdin: For OC[C@@H](O)C(O[C@@H]1O[C@@H](CO)[C@H](O)[C@H](O)[C@H]1O)[C@H](O)[C@@H](O)CO (some centres undefined) , which call appears in the assay record?
stdout: N

stdin: For CC(=O)O[C@]1(C(C)=O)CCC2C3CCC4=CC(=O)CCC4(C)C3(F)C(O)CC21C (some centres undefined) , which call appears in the assay record?
stdout: N
